- Tested on: ATP;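 further: ATP exposure 15 min at 22 °C before imaging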
- TEST_NAME: switch fluorescence ratio, 500 uM ATP over buffer (Cy3 cluster intensity, sum of 5 cycles each) (fold (ratio)); higher = stronger signal-on switching upon ATP binding; sequences stand for … in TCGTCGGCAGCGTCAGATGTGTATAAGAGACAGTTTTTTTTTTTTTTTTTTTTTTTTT…TC
- COND: aptamer strand: ATP DNA aptamer (quencher-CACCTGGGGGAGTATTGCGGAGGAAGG + anchor), 100 nM annealed; ATP concentration: 500 uM
QUANTITY_MEASURED: switch fluorescence ratio
Respond with the number and no other words.

INSERT INTO measurements (residue_sequence, experimental_system, measured) VALUES
  ('AAGGGAAGT', 'ATP', 1.02),
  ('TCGTACCTTG', 'ATP', 1.01),
  ('CGGTGAAGCC', 'ATP', 0.984),
  ('TTTGTACAAC', 'ATP', 1.01),
  ('CGGTGAGCGA', 'ATP', 1.03);

Please report the recorded switch fluorescence ratio for AACCATTAGG .
0.996

Also check GATGGATCGG
1.01

Also check AGGTATTATC
0.968

Also check TTTTGGAAGC
1.03

Also check TTTTTAGAAG
0.985

Also check CTCGACGGGG
0.975

Also check AGGTTCGGAT
0.985

Also check AAGGTCAAGC
1

Also check ATCGATGAAT
0.995

Also check GACGGGCACA
1.13

###

- Test system: ATP;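 further: ATP exposure 15 min at 22 °C before imaging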
- TEST_NAME: switch fluorescence ratio, 500 uM ATP over buffer (Cy3 cluster intensity, sum of 5 cycles each) (fold (ratio)); higher = stronger signal-on switching upon ATP binding; sequences stand for … in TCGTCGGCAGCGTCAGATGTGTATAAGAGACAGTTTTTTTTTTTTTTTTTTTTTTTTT…TC
- COND: aptamer strand: ATP DNA aptamer (quencher-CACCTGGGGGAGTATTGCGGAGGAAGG + anchor), 100 nM annealed; ATP concentration: 500 uM
Form field: switch fluorescence ratio (one value per entry).

Here's what some known entries look like.
INSERT INTO results (residue_sequence, measured) VALUES
  ('AGGATCGACG', 0.925),
  ('TTTTGGTGG', 0.974),
  ('AATTAGAATG', 0.974),
  ('TGTGGAAGTT', 0.969),
  ('ACCAGGGGAG', 1.26),
  ('AAATACAAGG', 1.15),
  ('AGCTAGGGGA', 1.08),
  ('CCTAGGGGAA', 1.02);

Next:
Enter reported switch fluorescence ratio observed with ATP for CGTCGCTGGG
1.01

###

- Tested on: ATP;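 further: ATP exposure 15 min at 22 °C before imaging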
- TEST_NAME: switch fluorescence ratio, 500 uM ATP over buffer (Cy3 cluster intensity, sum of 5 cycles each) (fold (ratio)); higher = stronger signal-on switching upon ATP binding; sequences stand for … in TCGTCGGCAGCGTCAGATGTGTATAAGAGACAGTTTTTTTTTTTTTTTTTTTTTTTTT…TC
- COND: aptamer strand: ATP DNA aptamer (quencher-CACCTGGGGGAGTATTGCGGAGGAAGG + anchor), 100 nM annealed; ATP concentration: 500 uM
Threshold check on switch fluorescence ratio: at or above 1 gives satisfied, strictly below gives not satisfied.

INSERT INTO measurements (residue_sequence, experimental_system, group_label) VALUES
  ('AGCTCATCGC', 'ATP', 'satisfied'),
  ('ATCGGAGACA', 'ATP', 'not satisfied'),
  ('ACGAACGATC', 'ATP', 'satisfied'),
  ('AAAGGTGGCG', 'ATP', 'satisfied');

Turning to the following sequence.
Identify whether the reported switch fluorescence ratio of the following sequence is 1 or greater: TGGTCTATTT
not satisfied
